ASSAYED_TARGET: Gal4 DNA binding domain fused to the LBD of LXRα in HEK293 cells (Homo sapiens (Human))
TEST_DESCRIPTION: LXR luciferase transcriptional reporter gene assay, agonist mode, LXRα
Format: cell-based
ASSAY_CONTEXT: read-out: Cell LXRα EC50
QUANTITY: pEC50
Give bare numbers, as −log10 of the molar value.

COC(=O)c1cnc(N2CCN(c3ccc(F)c(S(C)(=O)=O)c3)C[C@H]2C(C)C)nc1 = 5.15

Could you tell me pEC50 for each of these compounds? They are listed below.
1. CC(C)[C@@H]1CN(c2ccc(F)c(S(C)(=O)=O)c2)CCN1c1ncc(C(F)(F)F)c(C(C)(C)O)n1
2. NS(=O)(=O)c1cccc(N2CCN(C[C@H]3CC[C@@H](C(F)F)CC3)[C@H](c3ccccc3)C2)c1 (single isomer, unassigned)
3. CC(C)(O)c1cnc(N2CCN(c3ccc(F)c(S(C)(=O)=O)c3)CC2C(C)(C)C)nc1C(F)(F)F (stereo not shown)
4. CC(C)(F)CC1CN(c2ccc(F)c(S(C)(=O)=O)c2)CCN1c1ccc(C(F)(F)F)cn1 (stereo not shown)
5. CC(C)[C@H]1CN(c2cccc(S(C)(=O)=O)c2)CCN1C[C@H]1CC[C@H](C(F)(F)F)OC1 (single isomer, unassigned)
6. CS(=O)(=O)c1cc(N2CCN(C[C@H]3CC[C@H](C(F)(F)F)CC3)[C@@H](c3ccccc3)C2)ccc1C#N (single isomer, unassigned)

6.49
5.04
5.99
5.82
6.35
5.51

---

Please provide measured pEC50 for the entries that follow.
ASSAYED_TARGET: Gal4 DNA binding domain fused to the LBD of LXRβ in HEK293 cells (Homo sapiens (Human))
Sequence (P55055 222-460 limits assumed): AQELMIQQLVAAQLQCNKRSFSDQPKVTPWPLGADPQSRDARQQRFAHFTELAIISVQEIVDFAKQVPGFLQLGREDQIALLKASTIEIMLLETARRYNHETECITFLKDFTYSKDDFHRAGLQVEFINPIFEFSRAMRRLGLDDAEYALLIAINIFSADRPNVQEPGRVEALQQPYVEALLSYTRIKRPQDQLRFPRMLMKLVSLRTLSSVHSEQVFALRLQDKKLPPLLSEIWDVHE
TEST_DESCRIPTION: cell-based
Numbers only, as −log10 of the molar value.

// known answers, use as guide
CC(C)[C@@H]1CN(c2ccc(F)c(S(C)(=O)=O)c2)CCN1c1ncc(O)c(C(F)(F)F)n1 = 6.14
C[C@]1(c2ccccc2)CN(c2cccc(S(C)(=O)=O)c2)CCN1Cc1ccc(C(F)(F)F)c(Cl)c1 (single isomer, unassigned) = 6.23
CC(C)[C@@H]1CN(c2cccc(S(C)(=O)=O)c2)CCN1c1ncc(C2CC2)cn1 = 7.03
CS(=O)(=O)c1cccc(N2CCN(Cc3ccc(OC(F)(F)F)cc3)[C@@H](c3ccccc3)C2)c1 (single isomer, unassigned) = 5.84
CC(C)[C@@H]1CN(c2ccc(CO)c(S(C)(=O)=O)c2)CCN1c1nc(C(F)(F)F)c(CO)o1 = 6.33

Please supply pEC50 for each of the following items, keeping them in order.
1. CC(O)c1cnc(N2CCN(c3ccc(F)c(S(C)(=O)=O)c3)C[C@H]2C(C)C)nc1C(F)(F)F (mixture of isomers)
2. CC(=O)NCc1cnc(N2CCN(c3ccc(F)c(S(C)(=O)=O)c3)C[C@H]2C(C)C)nc1C(F)(F)F
3. CC(C)[C@@H]1CN(c2cc(F)c(CO)c(S(C)(=O)=O)c2)CCN1c1ncc(C(N)=O)c(C(F)(F)F)n1
4. CC(C)[C@@H]1CN(c2ccc(F)c(S(C)(=O)=O)c2)CCN1c1ncc(C(O)C(F)(F)F)cn1 (some centres unmarked)
5. CC(C)[C@@H]1CN(c2ccc(F)c(S(C)(=O)=O)c2)CCN1c1ncc(C(=O)N(C)C)c(C(F)(F)F)n1

1. 6.81
2. 6.09
3. 7.70
4. 6.52
5. 6.61

---

Consider the following molecules; for each one, report its Cell LXRα efficacy.
ASSAYED_TARGET: Gal4 DNA binding domain fused to the LBD of LXRα in HEK293 cells (Homo sapiens (Human), UniProt Q13133)
Sequence (Q13133 209-447): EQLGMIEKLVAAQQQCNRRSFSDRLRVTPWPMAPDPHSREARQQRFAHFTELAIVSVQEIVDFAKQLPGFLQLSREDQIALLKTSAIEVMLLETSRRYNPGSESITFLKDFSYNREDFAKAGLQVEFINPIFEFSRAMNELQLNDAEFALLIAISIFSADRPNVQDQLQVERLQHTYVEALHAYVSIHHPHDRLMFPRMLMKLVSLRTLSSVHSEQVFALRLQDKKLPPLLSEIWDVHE
TEST_DESCRIPTION: LXR luciferase transcriptional reporter gene assay, agonist mode, LXRα
Type: cell-based

In the examples that follow, each entry is paired with its recorded Cell LXRα efficacy.
Cc1nc(N2CCN(c3ccc(F)c(S(C)(=O)=O)c3)CC2CC(F)(F)F)ncc1C(C)(C)O (stereo not shown) = 9158 (22) %
CS(=O)(=O)c1cccc(N2CCN(Cc3ccc(C(F)(F)F)c(Cl)c3)[C@@H](Cc3ccccc3)C2)c1 = 3618 (61) %
CC1(C)CCC(CN2CCN(c3ccc(CO)c(S(C)(=O)=O)c3)C[C@@H]2c2ccccc2)CC1 (single isomer, unassigned) = 364 (73) %

Cell LXRα efficacy for "CC(C)[C@@H]1CN(c2ccc(F)c(S(C)(=O)=O)c2)CCN1c1ccc(C(F)(F)F)nn1" ?
1335 (112) %

---

For each record, write down the corresponding FRET LXRβ efficacy.
ASSAYED_TARGET: UniProtKB P55055
TEST_DESCRIPTION: biochemical
Format: biochemical
Sequence (P55055 222-460): as the sequence (P55055 222-460 limits assumed) above

State recorded FRET LXRβ efficacy for all listed molecules.
1. CS(=O)(=O)c1cccc(N2CCN(Cc3ccc(C(F)(F)F)cc3)[C@H](c3ccccc3)C2)c1 (single isomer, unassigned)
2. CS(=O)(=O)c1cccc(N2CCN(C[C@H]3CC[C@@H](C(F)(F)F)CC3)[C@@H](c3ccc(F)cc3)C2)c1
3. CC(C)(O)[C@@H]1CN(c2cccc(S(C)(=O)=O)c2)CCN1c1nccc(C(F)(F)F)n1
4. COC(=O)c1cnc(N2CCN(c3ccc(F)c(S(C)(=O)=O)c3)C[C@H]2C(C)C)nc1C(F)(F)F
5. CS(=O)(=O)c1cccc(N2CCN(Cc3ccc(OC(F)F)cc3)[C@@H](c3ccccc3)C2)c1
6. Cc1ccc(CN2CCN(c3cccc(S(C)(=O)=O)c3)C[C@H]2c2ccccc2)cc1 (single isomer, unassigned)
7. CS(=O)(=O)c1cccc(N2CCN(Cc3ccc(OC(F)(F)F)cc3)[C@@H](c3ccccc3)C2)c1 (single isomer, unassigned)

1. 2742 (49) %
2. 27 (43) %
3. 14 (74) %
4. 9 (91) %
5. 600 (20) %
6. 7159 (57) %
7. 710 (57) %

---

ASSAYED_TARGET: UniProt:Q13133
TEST_DESCRIPTION: LXR α radioligand binding assay (SPA, competition with [3H]TO901317)
ASSAY_CONTEXT: read-out: LXRα Binding Ki
QUANTITY: Ki

// for each compound in input: emit Ki
1. Cc1nc(N2CCN(c3ccc(F)c(S(C)(=O)=O)c3)C[C@H]2C(C)C)ncc1C(N)=O
2. CC(C)[C@H]1CN(c2ccc(CO)c(S(C)(=O)=O)c2)CCN1Cc1ccc(C(F)(F)F)c(F)c1
3. CCOC(=O)c1cnc(N2CCN(c3ccc(-c4nnc(C)o4)c(S(C)(=O)=O)c3)C[C@H]2C(C)C)nc1C(F)(F)F
4. CCN(CCOC)C(=O)c1cnc(N2CCN(c3ccc(F)c(S(C)(=O)=O)c3)C[C@H]2C(C)C)nc1C(F)(F)F
5. CO[C@H]1CC[C@H](CN2CCN(c3ccc(CO)c(S(C)(=O)=O)c3)C[C@@H]2C(C)C)CC1 (single isomer, unassigned)
6. CC(C)[C@@H]1CN(c2ccc(C(N)=O)c(S(C)(=O)=O)c2Cl)CCN1c1nccc(C(F)(F)F)n1

1: > 3330 nM; 2: 422 nM; 3: 2140 nM; 4: 915 nM; 5: 2800 nM; 6: > 3330 nM

Give recorded Ki with UniProt:Q13133 for the following compound: CO[C@]1(C(F)(F)F)CC[C@H](CN2CCN(c3ccc(CO)c(S(C)(=O)=O)c3)C[C@@H]2C(C)C)CC1 (single isomer, unassigned)
30 nM

---

Record form. Attribute: pKi. Fill in for each entry.
ASSAYED_TARGET: LXR β LBD protein (Homo sapiens (Human), UniProt P55055)
TEST_DESCRIPTION: biochemical
Format: binding
ASSAY_CONTEXT: read-out: LXRβ Binding Ki
Sequence (P55055 222-460 limits assumed): as above
Give bare numbers, as −log10 of the molar value.

Reference set (3 entries):
CC(C)[C@@H]1CN(c2ccc(F)c(S(C)(=O)=O)c2)CCN1c1nccc(C2CC2)n1 [7-10] = 7.89
NS(=O)(=O)c1cccc(N2CCN(C[C@H]3CC[C@H](C(F)F)CC3)[C@H](c3ccccc3)C2)c1 (single isomer, unassigned) [48-20] = 5.81
CC(C)[C@@H]1CN(c2ccc(F)c(S(C)(=O)=O)c2)CCN1c1nc2ccccc2o1 [7-52] = 7.39

Alright, here's another compound for you.
Lab note: need pKi for CCCCN(C)C(=O)c1cnc(N2CCN(c3ccc(F)c(S(C)(=O)=O)c3)C[C@H]2C(C)C)nc1C(F)(F)F [17-10] on LXR β LBD protein (Homo sapiens (Human), UniProt P55055), anyone have it?
7.19

---

ASSAYED_TARGET: Gal4 DNA binding domain fused to the LBD of LXRβ in HEK293 cells (Homo sapiens (Human))
TEST_DESCRIPTION: cell-based
ASSAY_CONTEXT: agonist mode; read-out: Cell LXRβ EC50
pEC50: −log10 of the molar value.
Hi, to clarify the labels: rule met covers pEC50 from 6 upward, rule not met covers anything below 6.

CC(C)[C@H]1CC[C@H](CN2CCN(c3cccc(S(C)(=O)=O)c3)C[C@@H]2c2ccccc2)CC1 (single isomer, unassigned) [48-15] = rule met
CC(C)[C@@H]1CN(c2ccc(F)c(S(C)(=O)=O)c2)CCN1C[C@H]1CC[C@@H](C(F)(F)F)CC1 [48-24] = rule met
CS(=O)(=O)c1cccc(N2CCN(C[C@H]3CC[C@H](C(F)(F)F)CC3)[C@H](c3ccccc3)C2)c1 (single isomer, unassigned) [48-32] = rule not met
CS(=O)(=O)c1cc(N2CCN(C[C@H]3CC[C@H](C(F)(F)F)CC3)[C@H](c3ccccc3)C2)ccc1C(N)=O (single isomer, unassigned) [17-36] = rule not met
CS(=O)(=O)c1cc(N2CCN(C[C@H]3CC[C@H](C(F)(F)F)CC3)[C@@H](c3ccccc3)C2)ccc1C(N)=O (single isomer, unassigned) [17-37] = rule not met
CS(=O)(=O)c1cccc(N2CCN(C[C@H]3CC[C@](C)(O)CC3)[C@H](c3ccccc3)C2)c1 (single isomer, unassigned) [Cpd No 48-8] = rule not met
CC(C)[C@H]1CC[C@H](CN2CCN(c3cccc(S(C)(=O)=O)c3)C[C@H]2c2ccccc2)CC1 (single isomer, unassigned) [48-14] = rule not met
NS(=O)(=O)c1cccc(N2CCN(C[C@H]3CC[C@@H](C(F)(F)F)CC3)[C@H](c3ccccc3)C2)c1 (single isomer, unassigned) [48-34] = rule not met

Does CS(=O)(=O)c1cc(N2CCN(C[C@H]3CC[C@@H](C(F)(F)F)CC3)[C@H](c3ccccc3)C2)ccc1C(N)=O (single isomer, unassigned) [17-38] have a reported pEC50 of at least 6?
rule not met

Please indicate if the recorded pEC50 for CC(F)(F)[C@H]1CC[C@@H](CN2CCN(c3cccc(S(C)(=O)=O)c3)C[C@@H]2c2ccccc2)CC1 (single isomer, unassigned) [48-28] meets or exceeds 6.
rule not met

Is the recorded value of pEC50 equal to or greater than 6 for this molecule? CS(=O)(=O)c1cccc(N2CCN(C[C@H]3CC[C@@](C)(O)CC3)[C@@H](c3ccccc3)C2)c1 (single isomer, unassigned) [48-5]
rule not met

Confirm if pEC50 reported for the molecule CS(=O)(=O)c1cccc(N2CCN(C[C@H]3CC[C@@](C)(O)CC3)[C@H](c3ccccc3)C2)c1 (single isomer, unassigned) [48-6] is 6 or above.
rule not met

Textbook exercise: given the entry CS(=O)(=O)c1cc(N2CCN(C[C@H]3CC[C@H](C(F)(F)F)CC3)[C@H](c3ccccc3)C2)ccc1CO (single isomer, unassigned) [48-44] , state whether its pEC50 is greater than or equal to 6.
rule not met

Record CS(=O)(=O)c1cccc(N2CCN(C[C@H]3CC[C@@H](C(F)(F)F)CC3)[C@H](c3ccccc3)C2)c1 (single isomer, unassigned) [48-30] ; criterion: pEC50 no lower than 6. Met?
rule not met
